- test-target: FIH-Gln239 → Asn variant (human)
- assay-info: other fluorescence titration
observed-property: pKd
Answers are plain numbers, as −log10 of the molar value.

**Query** Which pKd is listed for DESGLPQLTSYDAEVNAPIQGSRNLLQGEELLRALDQVN [39-mer CTAD peptide (C-terminal activation domain of human HIF1α, HIF1α 788–826, Cys800 → Ala)] ?
**Result** 4.01
